- target.or.test.system: T1, His-tagged recombinant human PD-L1 protein (Sino Biological #10084-H08H) (Homo sapiens, UniProt Q9NZQ7)
- T1 construct: programmed death-ligand 1 (PD-L1, B7-H1, CD274), human; also called huPD-L1; source: bought: Sino Biological (#10084-H08H)
- T1 sequence (Q9NZQ7 19-238): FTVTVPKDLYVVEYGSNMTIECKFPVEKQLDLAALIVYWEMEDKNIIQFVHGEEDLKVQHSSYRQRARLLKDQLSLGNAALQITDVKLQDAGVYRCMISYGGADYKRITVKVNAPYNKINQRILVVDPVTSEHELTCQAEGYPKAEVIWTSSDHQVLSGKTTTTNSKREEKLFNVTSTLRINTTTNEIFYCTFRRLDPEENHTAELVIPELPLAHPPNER
- experimental.protocol: SPR; Biacore T200, 25°C, HBS (0.01 M HEPES pH 7.4, 0.15 M NaCl, 3 mM EDTA, 0.005% Tween 20); His-tagged recombinant human PD-L1 amine-coupled on a CM5 chip (650-900 RU); purified Nb as analyte, 9 dilutions (0.15-1000 nM), 120 s association, 160 s dissociation; 1-to-1 fit; n = 1
- setup.conditions: both partners purified
Quick reference for pKd among some binders
Lab note — pKd values are minus log10 of concentrations in M.

Solved cases (3 shown):
| binder | pKd |
| --- | --- |
| Nb E4 (purified, C-terminal His6 tag) (VHH, source: E. coli (pHEN6), purified; not shown: His6, C-terminal, kept) VHH: QVQLQESGGGLVHPGGSLRLSCATSGSIFSIISMGWYRQAPGKQRELVALVFRGGSTVYADSVKGRFTISGDIAKSTVYLQMDSLKPEDTAVYYCNAKPIGTAQYWGQGTQVTVSS | 7.34 |
| Nb C3 (purified, C-terminal His6 tag) (VHH, source: E. coli (pHEN6), purified; not shown: His6, C-terminal, kept) VHH: QVQLQESGGGLVQTGGSLRLSCAASGSTVSSSMMAWWRQTPGNQRELVALVASGNNTNYVDSVKGRFTVSRDNAKNTMYLQMNSLKPEDTAVYYCRILSVNGIWYWGQGTQVTVSS | 6.77 |
| Nb E2 (purified, C-terminal His6 tag) (VHH, source: E. coli (pHEN6), purified; not shown: His6, C-terminal, kept) VHH: QVQLQESGGGLVQAGGSLRLSCATSGSIFSIISMGWYRQAPGKQRELVALVFRGGSTVYADSVKGRFTISGDIAKNTVYLQMDSLKPEDTAVYYCNVKSIGTAQYWGQGTQITVSS | 7.26 |

The binder Nb C7 (purified, C-terminal His6 tag) (VHH, source: E. coli (pHEN6), purified; not shown: His6, C-terminal, kept) VHH: QVQLQESGGGSVQAGESLTLSCTASGSSLSHKSVGWWRQTPGNQRELVALVASGNNTNYVDSVKGRFTVSRDNAKNTMYLQMNSLKPEDTAVYYCRILSVNGIWYWGQGTQVTVSS showed pKd equal to 7.13
